Values were extracted from PubChem BioAssay (NCI).

Give TGI for every item shown.
# System: UACC-257 melanoma
# method.summary: NCI tumour cell line growth inhibition, 48 h

QUERY: What measured TGI goes with `CC(=O)N1c2ccc(-c3ccc(C(=O)O)cc3)cc2[C@H](Nc2ccc(Cl)cc2)C[C@@H]1C` ?
RESULT: 21.5 µM

QUERY: Suppose we examine the compound CC(C)CC1NC(=O)C(C(C)C)NC(=O)CC(C)COC(=O)C(CC(C)C)N(C)C(=O)C(C(C)C)NC(=O)C(C(C)C)OC1=O (centres undefined) ; what TGI value has been reported?
RESULT: > 50 µM

QUERY: Query (compound): `CC1(C)O[C@@H](CP(c2ccc3ccccc3c2)c2ccc3ccccc3c2)[C@H](CP(c2ccc3ccccc3c2)c2ccc3ccccc3c2)O1` ; field requested: TGI
RESULT: > 100 µM

QUERY: Return reported TGI; argument: `NNC(=O)CSc1nnc(CCCCCCCCc2nnc(SCC(=O)NN)o2)o1`
RESULT: > 100 µM
